- test-target: UniProt Q9P2H5
- Sequence (Q9P2H5 whole entry, the tested form may be a part): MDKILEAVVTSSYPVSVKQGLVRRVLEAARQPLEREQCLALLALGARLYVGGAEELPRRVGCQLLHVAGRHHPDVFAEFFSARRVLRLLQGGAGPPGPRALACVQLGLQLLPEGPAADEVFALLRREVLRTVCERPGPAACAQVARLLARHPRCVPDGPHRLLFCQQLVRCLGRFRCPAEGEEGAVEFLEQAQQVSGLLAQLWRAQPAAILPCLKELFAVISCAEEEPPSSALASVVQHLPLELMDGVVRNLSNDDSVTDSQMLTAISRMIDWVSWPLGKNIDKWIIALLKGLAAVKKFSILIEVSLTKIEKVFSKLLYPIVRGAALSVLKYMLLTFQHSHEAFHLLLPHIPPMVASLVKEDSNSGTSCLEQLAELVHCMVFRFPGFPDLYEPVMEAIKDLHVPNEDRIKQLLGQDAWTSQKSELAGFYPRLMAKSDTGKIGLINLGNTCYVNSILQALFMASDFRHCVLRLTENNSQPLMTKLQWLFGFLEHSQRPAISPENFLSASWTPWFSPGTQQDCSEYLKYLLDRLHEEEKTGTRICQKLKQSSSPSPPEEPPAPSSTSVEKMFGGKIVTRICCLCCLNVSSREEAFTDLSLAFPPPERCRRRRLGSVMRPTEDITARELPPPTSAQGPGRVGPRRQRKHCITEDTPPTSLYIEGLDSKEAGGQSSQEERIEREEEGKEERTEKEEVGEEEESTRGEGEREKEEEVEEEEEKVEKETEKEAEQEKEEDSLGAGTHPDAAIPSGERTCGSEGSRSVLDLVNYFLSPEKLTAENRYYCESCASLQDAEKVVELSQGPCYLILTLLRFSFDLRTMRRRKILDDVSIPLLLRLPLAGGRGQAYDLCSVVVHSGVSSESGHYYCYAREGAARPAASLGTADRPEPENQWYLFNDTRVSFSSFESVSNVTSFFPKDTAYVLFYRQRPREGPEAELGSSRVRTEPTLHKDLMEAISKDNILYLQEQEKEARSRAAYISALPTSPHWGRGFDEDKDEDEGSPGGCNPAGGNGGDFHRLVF
- assay-text: log2 ratio of Biotin-Ahx-Ub-VS probe labelling (fragment/DMSO); higher = less target engagement (more negative = stronger competition), active = hit call of the paper (q ≤ 0.05, log2 ratio ≤ -1)
- measurement-context: compound concentration: 200 uM; treatment time: 3 h
Parameter threshold = -0.2. Response is yes when log2 ratio of Biotin-Ahx-Ub-VS probe labelling meets or exceeds it, else no.

Exercise: Could you please find out whether "Cc1nc(CN2CCN(C(=O)CCl)CC2)cs1" has log2 ratio of Biotin-Ahx-Ub-VS probe labelling that meets -0.2 or exceeds it?
Solution: no

Exercise: Could you please find out whether "O=C(CCl)Nc1nnc(CC(F)(F)F)o1" has log2 ratio of Biotin-Ahx-Ub-VS probe labelling that meets -0.2 or exceeds it?
Solution: yes

Exercise: Could you please find out whether "O=C(CCl)NCc1noc(C2CC2)n1" has log2 ratio of Biotin-Ahx-Ub-VS probe labelling that meets -0.2 or exceeds it?
Solution: yes

Exercise: Could you please find out whether "Cc1c(NC(=O)CCl)c(=O)n(-c2ccccc2)n1C" has log2 ratio of Biotin-Ahx-Ub-VS probe labelling that meets -0.2 or exceeds it?
Solution: no

Exercise: Could you please find out whether "CS(=O)(=O)c1ccc(NC(=O)CCl)cc1" has log2 ratio of Biotin-Ahx-Ub-VS probe labelling that meets -0.2 or exceeds it?
Solution: yes

Exercise: Could you please find out whether "Cc1nc(-c2cccc(NC(=O)CCl)c2)cs1" has log2 ratio of Biotin-Ahx-Ub-VS probe labelling that meets -0.2 or exceeds it?
Solution: yes

Exercise: Could you please find out whether Cc1ccc(CC(NC(=O)CCl)c2ccccn2)cc1.Cl (centres undefined) has log2 ratio of Biotin-Ahx-Ub-VS probe labelling that meets -0.2 or exceeds it?
Solution: yes

Exercise: Could you please find out whether COCC1C=CCCN1C(=O)CCl (centres undefined) has log2 ratio of Biotin-Ahx-Ub-VS probe labelling that meets -0.2 or exceeds it?
Solution: yes

Exercise: Could you please find out whether CC(NC(=O)CCl)c1cccc(Cl)c1 (centres undefined) has log2 ratio of Biotin-Ahx-Ub-VS probe labelling that meets -0.2 or exceeds it?
Solution: no

Exercise: Could you please find out whether CC1Cc2ccccc2N1C(=O)CCl (centres undefined) has log2 ratio of Biotin-Ahx-Ub-VS probe labelling that meets -0.2 or exceeds it?
Solution: yes

Exercise: Could you please find out whether "O=C(CCl)N1CCOC2(CCC2)CC1" has log2 ratio of Biotin-Ahx-Ub-VS probe labelling that meets -0.2 or exceeds it?
Solution: yes

Exercise: Could you please find out whether "Cl.O=C(CCl)N1CCC(n2nc3ccccc3n2)CC1" has log2 ratio of Biotin-Ahx-Ub-VS probe labelling that meets -0.2 or exceeds it?
Solution: no

Exercise: Could you please find out whether Cl.O=C(CCl)N1CCCC(c2ncc[nH]2)C1 (centres undefined) has log2 ratio of Biotin-Ahx-Ub-VS probe labelling that meets -0.2 or exceeds it?
Solution: yes

Exercise: Could you please find out whether CCN1C(=O)C2CN(C(=O)CCl)CCN2C1=O (centres undefined) has log2 ratio of Biotin-Ahx-Ub-VS probe labelling that meets -0.2 or exceeds it?
Solution: no

The origin of these recorded values is the supplement of paper PMC11732987.
